molecular target: Dual specificity protein kinase CLK4 (Homo sapiens) (UniProt Q9HAZ1); experiment: qHTS Assay for Inhibitors of CDC-like Kinase 4 (ADP-Glo Assay) (AID 1771); conditions: recombinant CLK4, ADP-Glo luminescence; series mostly up to 80 µM; further: nearly all actives have a fitted effect of over 70% in size
Sequence (Q9HAZ1 whole entry, looked up): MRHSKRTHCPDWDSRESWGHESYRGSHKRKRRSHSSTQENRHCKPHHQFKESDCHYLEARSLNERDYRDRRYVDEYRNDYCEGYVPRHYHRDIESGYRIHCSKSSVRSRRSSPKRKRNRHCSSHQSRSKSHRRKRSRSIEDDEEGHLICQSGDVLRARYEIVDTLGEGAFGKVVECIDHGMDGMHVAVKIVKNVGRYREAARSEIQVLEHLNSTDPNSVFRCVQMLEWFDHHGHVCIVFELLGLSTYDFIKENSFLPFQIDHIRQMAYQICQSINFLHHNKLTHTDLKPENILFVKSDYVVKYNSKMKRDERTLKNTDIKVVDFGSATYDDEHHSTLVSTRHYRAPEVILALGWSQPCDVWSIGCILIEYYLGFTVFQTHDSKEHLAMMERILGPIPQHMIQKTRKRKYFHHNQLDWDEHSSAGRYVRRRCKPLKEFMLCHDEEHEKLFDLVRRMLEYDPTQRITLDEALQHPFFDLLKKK
Inconclusive results are not listed. Active and inactive are the calls of the source. The call rests on the fitted dose curve; in most records, active means well fitted inhibition curve with a large enough effect; inconclusive means small, poorly fitted or top-dose-only effect; inactive means flat fitted curve, though single readings scatter.
Pick one: active, inactive

As a guide, the following entries are already answered.
Cc1cnc(CNc2ccnc(-c3ccoc3)n2)cn1 inactive
COc1ncc2nc(C)c(=O)n(Cc3ccc(F)cc3)c2n1 inactive
N#CCCn1c(=O)c(-c2cccs2)nc2cnc(N3CCOCC3)nc21 inactive
COc1cccc(-c2cc(NCc3cccnc3)ncn2)c1 active
COc1cccc(Cn2c(=O)c(C)nc3cnc(N(C)C)nc32)c1 inactive

Status in this test for CN1CCN(c2ncc3ncc(=O)n(Cc4ccc(F)cc4)c3n2)CC1 ?
inactive

Status in this test for CCNc1ncc2nc(-c3cccs3)c(=O)n(Cc3cccc(OC)c3)c2n1 ?
inactive

Status in this test for CCNc1ncc2nc(-c3ccccc3)c(=O)n(CCOC)c2n1 ?
inactive

Status in this test for CCNc1ncc2nc(-c3ccc(OC)cc3)c(=O)n(Cc3ccc(F)cc3)c2n1 ?
inactive

Status in this test for COc1cccc(Cn2c(=O)c(CCc3ccccc3)nc3cnc(N4CCOCC4)nc32)c1 ?
inactive

Status in this test for CCNc1ncc2nc(-c3ccc(F)cc3)c(=O)n(C)c2n1 ?
inactive

* * *

Collected activation values appear next to each entry.
Biological target: Thyrotropin-releasing hormone receptor (Homo sapiens)
Test: qHTS for Small Molecule Agonists and Allosteric Enhancers of Human TRH Receptor: Validation Screen for Agonists (AID 493127);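 further: intracellular calcium rise by fluo-8 fluorescence before TRH EC20 addition; 0% is about no effect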
Settings: TRH receptor agonist cell assay; at 2 µM; hits give high values
Method: NIH Chemical Genomics Center [NCGC] NIH Molecular Libraries Probe Centers Network [MLPCN] Assay Submitter (PI): Marvin Gershengorn […] For the HTS assay freshly prepared cells are plated at a density of 2000/well in 3 ul of complete DMEM medium containing 10% serum in 1536-well plates and cultured over night at 37 C in a humidified incubator with 5% CO2. […] For the assay, assay plates were loaded into the FDSS kinetic plate reader. […]
A number alone suffices; assume %.

compound	tested target	activation / %
CN(C)CCCO[C@H]1C([C@H](O)CO)O[C@@H]2OC(C)(C)O[C@@H]21 (stereo partly specified)	Thyrotropin-releasing hormone receptor (Homo sapiens)	0.75
Nc1ncnc2c1nc(Br)n2C1O[C@H]2COP(=O)(O)O[C@@H]2C1O (stereo partly specified)	Thyrotropin-releasing hormone receptor (Homo sapiens)	0.688
NC(=NCc1ccc(Cl)c(Cl)c1)NC(=O)c1nc(Cl)c(N)nc1N	Thyrotropin-releasing hormone receptor (Homo sapiens)	4.94
CNC(=O)[C@H]1O[C@@H](n2cnc3c(N)ncnc32)[C@H](O)[C@H]1O	Thyrotropin-releasing hormone receptor (Homo sapiens)	-0.0625
C[C@@H](Oc1ccc(Oc2cnc3ccc(Cl)cc3n2)cc1)C(=O)O	Thyrotropin-releasing hormone receptor (Homo sapiens)	-0.0625

Entry under test: COc1ccc2c(c1OC)C(=O)OC2C1c2c(cc3c(c2OC)OCO3)CCN1C (stereo unspecified) . Its activation was -4.69

* * *

biological target: Cytochrome P450 1A2 (Homo sapiens); assay: p450-cyp1a2 (AID 410); details: recombinant CYP1A2, luciferin-ME demethylation, luminescence; series mostly up to 57 µM
Inconclusive results are not listed. Activity calls are given as the source filed them. Calls come from the whole dose curve.
Pick one: yes (1) (active), no (0) (inactive)

Status in this test for COc1ncc2nc(C)c(=O)n(CCC#N)c2n1 ?
yes (1)
